These measurements were taken from ChEMBL document CHEMBL1268835.

assay: Metabolic stability of the compound in ICR mouse liver microsome assessed as compound remaining at 1 uM in presence of NADPH; type: ADME; details: liver microsomes, read-out: Stability
So basically: is remaining at 1 µM under 30%? Then met. Not under? Then not met.

sample_smiles	class_label
O=C(CCC1=CCCN(CCc2ccccc2F)C1=O)NO	not met
CC(C)(C)c1ccc(CCCN2CCC=C(CCC(=O)NO)C2=O)cc1	met
O=C(CCC1=CCCN(Cc2cccc(Cl)c2)C1=O)NO	not met
O=C1CC2(CCCC2)CC(=O)N1CCCCN1CCN(c2ncccn2)CC1	met
O=C(CCC1=CCCN(CCCCc2ccccc2)C1=O)NO	met
CN(C)CCCN1c2ccccc2Sc2ccc(Cl)cc21	met
Cc1ccc(CCCCN2CCC=C(CCC(=O)NO)C2=O)cc1	met
O=C(CCC1=CCCN(Cc2ccc(Br)cc2F)C1=O)NO	not met
